# test.details: Selectivity index, ratio of IC50 for rat L6 cells to IC50 for Trypanosoma cruzi Tulahuen C4 amastigotes
compounds and their reported selectivity ratio

Guide cases for selectivity ratio, answers given:
{"query.smiles": "O=[N+]([O-])c1ncn(CCNS(=O)(=O)Cc2ccccc2)n1", "selectivity ratio": "> 48"}
{"query.smiles": "Cn1ccnc1S(=O)(=O)NCCn1cnc([N+](=O)[O-])n1", "selectivity ratio": "> 4"}
{"query.smiles": "Cc1ccc(S(=O)(=O)NCCCn2cnc([N+](=O)[O-])n2)cc1", "selectivity ratio": "> 747"}
{"query.smiles": "O=C(Cn1cnc([N+](=O)[O-])n1)N1CCC(Cc2ccccc2)CC1", "selectivity ratio": 468}

What measured selectivity ratio goes with O=C(NCCCn1cnc([N+](=O)[O-])n1)c1cc(C(F)(F)F)cc(C(F)(F)F)c1 ?
291

What measured selectivity ratio goes with O=[N+]([O-])c1ncn(CCCNS(=O)(=O)c2ccc(-c3ccccc3)cc2)n1 ?
1760

* * *

compounds and their reported selectivity ratio
# test.details: Selectivity index, ratio of IC50 for rat L6 cells to IC50 for Trypanosoma brucei rhodesiense STIB900 trypomastigotes

Guide cases for selectivity ratio, answers given:
{"query.smiles": "Cn1ccnc1S(=O)(=O)NCCn1cnc([N+](=O)[O-])n1", "measured": "> 9.3"}
{"query.smiles": "Cn1ccnc1S(=O)(=O)NCCCn1cnc([N+](=O)[O-])n1", "measured": "> 14.5"}
{"query.smiles": "O=C(NCCn1cnc([N+](=O)[O-])n1)c1ccc(OC(F)(F)F)cc1", "measured": "> 131"}
{"query.smiles": "O=C(Cn1cnc([N+](=O)[O-])n1)Nc1nc2cc(Cl)ccc2o1", "measured": "< 1"}
{"query.smiles": "O=C(NCCCCn1cnc([N+](=O)[O-])n1)c1ccc(OC(F)(F)F)cc1", "measured": "> 193"}
{"query.smiles": "O=[N+]([O-])c1ncn(CCCNS(=O)(=O)Cc2ccccc2)n1", "measured": "> 47.4"}
{"query.smiles": "Cc1ccc(S(=O)(=O)NCCCn2cnc([N+](=O)[O-])n2)cc1", "measured": "> 121"}

What measured selectivity ratio goes with O=[N+]([O-])c1ncn(CCNS(=O)(=O)Cc2ccccc2)n1 ?
> 38.3

* * *

# test.details: Selectivity index, ratio of IC50 for rat L6 cells to IC50 for Trypanosoma cruzi Tulahuen C4 amastigotes
compounds and their reported selectivity ratio
Lab note: jot down the number only; don't add units.

Guide cases for selectivity ratio, answers given:
{"query.smiles": "O=C(Cn1cnc([N+](=O)[O-])n1)Nc1nc2cc(Cl)ccc2o1", "selectivity ratio": 3.3}
{"query.smiles": "O=[N+]([O-])c1ncn(CCNS(=O)(=O)c2cc(C(F)(F)F)cc(C(F)(F)F)c2)n1", "selectivity ratio": 66.2}
{"query.smiles": "O=C(Cn1cnc([N+](=O)[O-])n1)NCc1ccccc1", "selectivity ratio": 102}

// below: selectivity ratio requested for another compound
What measured selectivity ratio goes with O=[N+]([O-])c1ncn(CCCNS(=O)(=O)c2cccc3cccnc23)n1 ?
519

* * *

# test.details: Selectivity index, ratio of IC50 for rat L6 cells to IC50 for Trypanosoma cruzi Tulahuen C4 amastigotes
compounds and their reported selectivity ratio

Guide cases for selectivity ratio, answers given:
{"query.smiles": "O=C(NCCCn1cnc([N+](=O)[O-])n1)c1ccc(C(F)(F)F)nc1", "measured": "> 84"}
{"query.smiles": "O=C(NCCn1cnc([N+](=O)[O-])n1)c1ccc(C(F)(F)F)cc1", "measured": "> 625"}
{"query.smiles": "O=C(NCCn1cnc([N+](=O)[O-])n1)c1ccc(OC(F)(F)F)cc1", "measured": "> 357"}
{"query.smiles": "O=[N+]([O-])c1ncn(CCCNS(=O)(=O)c2ccc(Cl)s2)n1", "measured": 556}
{"query.smiles": "O=[N+]([O-])c1ncn(CCCNS(=O)(=O)c2ccc(C(F)(F)F)cc2)n1", "measured": 656}

What measured selectivity ratio goes with O=C(NCCCCn1cnc([N+](=O)[O-])n1)c1ccc2ccccc2n1 ?
691

What measured selectivity ratio goes with O=C(Cn1cnc([N+](=O)[O-])n1)Nc1nc2ccc(Cl)cc2s1 ?
24.8

What measured selectivity ratio goes with O=C(NCCCn1cnc([N+](=O)[O-])n1)c1ccc(-c2ccccc2)cc1 ?
2780

What measured selectivity ratio goes with Cn1ccnc1S(=O)(=O)NCCCn1cnc([N+](=O)[O-])n1 ?
> 15

What measured selectivity ratio goes with O=C(NCCCn1cnc([N+](=O)[O-])n1)Nc1cc(C(F)(F)F)cc(C(F)(F)F)c1 ?
33

What measured selectivity ratio goes with O=C(NCCCCn1cnc([N+](=O)[O-])n1)c1ccc(OC(F)(F)F)cc1 ?
> 2380

What measured selectivity ratio goes with Cc1ccc2nc(NC(=O)Cn3cnc([N+](=O)[O-])n3)sc2c1 ?
94.4

What measured selectivity ratio goes with O=C(NCCCn1ccnc1[N+](=O)[O-])c1ccc(C(F)(F)F)cc1 ?
29

What measured selectivity ratio goes with O=[N+]([O-])c1nccn1CCCNS(=O)(=O)c1ccc(C(F)(F)F)cc1 ?
106

What measured selectivity ratio goes with O=C(NCCCn1cnc([N+](=O)[O-])n1)c1cnc2ccccc2n1 ?
> 379

What measured selectivity ratio goes with O=[N+]([O-])c1ncn(CCCNS(=O)(=O)Cc2ccccc2)n1 ?
> 138

What measured selectivity ratio goes with O=C(NCCCn1cnc([N+](=O)[O-])n1)c1cccc(C(F)(F)F)c1 ?
> 826

What measured selectivity ratio goes with O=C(NCCCn1ccnc1[N+](=O)[O-])c1ccc(OC(F)(F)F)cc1 ?
74
